- EXPERIMENT DESCRIPTION: chemical genetic growth profiling, strain panel (AID 1159580);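 note: tested at 20 µM; growth read once vehicle control cultures reached saturation at 30 °C; 1 = growth at the plate median or of vehicle wells; lower values mean less growth of the strain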
- SETTINGS: S. cerevisiae deletion strains, growth OD, locus YMR078C, strain ctf18, hits give low values
Hit rate of the full screen: of about 5,500 compounds, about 2,000 (36%) were called active. Another 18% or so got no clear call; they are omitted. This is one part of the list.
QUANTITY KIND: normalized growth
Could you respond with only the numeric value?

// below: answered compounds
1) C[C@@H]1CCC2[C@](C)(CO)[C@@H](O)CC[C@]2(C)[C@@]12CC[C@@](CO)(CCO)O2 (stereo not given in full); 1
2) NCCCN; 0.972
3) COc1cc(C(=O)O)cc(OC)c1OC; 1.06
4) COc1cc(C(=O)N2CCOCC2)cc(OC)c1OC; 0.205

Q: If you can, please state the reported normalized growth value of `COc1ccccc1N1CCN(CCCNc2cc(=O)n(C)c(=O)n2C)CC1` .
Result: 0.981

Q: If you can, please state the reported normalized growth value of C[C@@H](CO)NC(=O)C1C=C2c3cccc4[nH]cc(c34)C[C@H]2N(C)C1 (stereo not given in full) .
Result: 0.985

Q: If you can, please state the reported normalized growth value of COC(=O)C(N)CS (stereo not given) .
Result: 0.968

Q: If you can, please state the reported normalized growth value of NS(=O)(=O)c1cc2c(cc1C(F)(F)F)NC(Cc1ccccc1)NS2(=O)=O (stereo not given) .
Result: 1

Q: If you can, please state the reported normalized growth value of `CC[C@@]1(O)C(=O)OCc2c1cc1n(c2=O)Cc2cc3ccccc3nc2-1` .
Result: 0.111

Q: If you can, please state the reported normalized growth value of `CC[C@@]1(O)C(=O)OCc2c1cc1n(c2=O)Cc2cc3cc(O)ccc3nc2-1` .
Result: 0.947
